# tgt: T1, Proleukin® (aldesleukin) (human, UniProt P60568 21-153, limits assumed)
# T1 construct: Variant of human wt IL-2 with C145S (C125S on mature IL-2); also called IL-2 (Proleukin®); human IL-2 (Proleukin)
# procedure.summary: SET assay (solution equilibration titration, MSD)
binders and their reported Kd
measured.attribute: Kd (pM)

104343_VH1_VK2D28Q (antibody, V domains shown, Human IgG1 Fc domain with the N297A point mutation) VH: QVQLVQSGAEVKKPGSSVKVSCKASGYAFTNYLIEWVRQAPGQGLEWMGVINPGSGGTNYNEKFKGRVTITADKSTSTAYMELSSLRSEDTAVYYCARWRGDGYYAYFDVWGQGTTVTVSS VL: DIVLTQSPLSLPVTLGQPASISCKASQSVDYQGDSYMNWYQQRPGQSPRLLIYAASNLESGVPDRFSGSGSGTDFTLKISRVEAEDVGVYYCQQSNEDPYTFGGGTKVEIK : 69
104343_VH1D98E_VK2D28Q (antibody, V domains shown, Human IgG1 Fc domain with the N297A point mutation) VH: QVQLVQSGAEVKKPGSSVKVSCKASGYAFTNYLIEWVRQAPGQGLEWMGVINPGSGGTNYNEKFKGRVTITADKSTSTAYMELSSLRSEDTAVYYCARWRGEGYYAYFDVWGQGTTVTVSS VL: DIVLTQSPLSLPVTLGQPASISCKASQSVDYQGDSYMNWYQQRPGQSPRLLIYAASNLESGVPDRFSGSGSGTDFTLKISRVEAEDVGVYYCQQSNEDPYTFGGGTKVEIK : 111
104348_VH5_VK1D28Q (antibody, V domains shown, Human IgG1 Fc domain with the N297A point mutation) VH: EVQLVQSGAEVKKPGESLKISCKGSGYAFTNYLIEWVRQMPGKGLEWMGVINPGSGGTNYNEKFKGQVTISADKSISTAYLQWSSLKASDTAMYYCARWRGDGYYAYFDVWGQGTTVTVSS VL: AIRLTQSPSSFSASTGDRVTITCKASQSVDYQGDSYMNWYQQKPGKAPKLLIYAASNLESGVPSRFSGSGSGTDFTLTISSLQSEDFATYYCQQSNEDPYTFGGGTKVEIK : 155
